System: TK-10
Test: NCI-60 SRB growth inhibition, one-dose and five-dose
Format: cell-based
Details: Homo sapiens, TK-10
A collection of molecules and their measured GI50
assay_endpoint: GI50 (µM)

[[record]]
molecule = "CC(=O)Nc1ccc(/C=C/C(=O)c2cccc(NCc3ccc(CO)cc3)c2)cc1 [Compound 5j]"
recorded_result = 16.1

[[record]]
molecule = "COc1ccc(CNc2cccc(C(=O)/C=C/c3ccc(NC(C)=O)cc3)c2)cc1OC [Compound 5h]"
recorded_result = 4.09

[[record]]
molecule = "O=C(/C=C/c1cccnc1)c1cccc(NCc2ccc(CO)cc2)c1 [Compound 5e]"
recorded_result = 15

[[record]]
molecule = "COc1ccc(CNc2cccc(C(=O)/C=C/c3cccnc3)c2)cc1OC [Compound 5c]"
recorded_result = 8.14

[[record]]
molecule = "Cc1ccc(CNc2cccc(C(=O)/C=C/c3cccnc3)c2)cc1 [Compound 5a]"
recorded_result = 14.4

[[record]]
molecule = "CC(=O)Nc1ccc(/C=C/C(=O)c2cccc(NCc3csc4ccccc34)c2)cc1 [Compound 5i]"
recorded_result = 17.6

[[record]]
molecule = "CC(=O)Nc1ccc(/C=C/C(=O)c2cccc(NCc3ccc(C)cc3)c2)cc1 [Compound 5f]"
recorded_result = 13.8

[[record]]
molecule = "O=C(/C=C/c1cccnc1)c1cccc(NCc2csc3ccccc23)c1 [Compound 5d]"
recorded_result = 6.18

[[record]]
molecule = "CC(=O)Nc1ccc(/C=C/C(=O)c2cccc(NCc3ccc(NC(C)=O)cc3)c2)cc1 [Compound 5g]"
recorded_result = 13.8

[[record]]
molecule = "CC(=O)Nc1ccc(CNc2cccc(C(=O)/C=C/c3cccnc3)c2)cc1 [Compound 5b]"
recorded_result = 2.53


---

System: NCI-H460
Assay: NCI-60 SRB growth inhibition, one-dose and five-dose
Type: cell-based
Conditions: Homo sapiens, NCI-H460
assay_endpoint: GI50 (µM)

[[record]]
smiles_input = "COc1ccc(CNc2cccc(C(=O)/C=C/c3ccc(NC(C)=O)cc3)c2)cc1OC"
display_unit = "µM"
recorded_result = 2.1

[[record]]
smiles_input = "CC(=O)Nc1ccc(/C=C/C(=O)c2cccc(NCc3ccc(NC(C)=O)cc3)c2)cc1"
display_unit = "µM"
recorded_result = 6.29

[[record]]
smiles_input = "CC(=O)Nc1ccc(/C=C/C(=O)c2cccc(NCc3csc4ccccc34)c2)cc1"
display_unit = "µM"
recorded_result = 3.84

[[record]]
smiles_input = "Cc1ccc(CNc2cccc(C(=O)/C=C/c3cccnc3)c2)cc1"
display_unit = "µM"
recorded_result = 12.9

[[record]]
smiles_input = "COc1ccc(CNc2cccc(C(=O)/C=C/c3cccnc3)c2)cc1OC"
display_unit = "µM"
recorded_result = 5.22


---

Tested on: MDA-MB-468
Experiment: NCI-60 SRB growth inhibition, one-dose and five-dose
Format: cell-based
Details: Homo sapiens, MDA-MB-468, read-out: percent growth inhibition
assay_endpoint: inhibition at 10 µM (%)

[[record]]
smiles_input = "CC(=O)Nc1ccc(/C=C/C(=O)c2cccc(NCc3ccc4oc(=O)ccc4c3)c2)cc1"
recorded_result = 72.9

[[record]]
smiles_input = "COc1ccc(CNc2cccc(C(=O)/C=C/c3cccnc3)c2)cc1OC"
recorded_result = 157

[[record]]
smiles_input = "CC(=O)Nc1ccc(CNc2cccc(C(=O)/C=C/c3c[nH]cn3)c2)cc1"
recorded_result = 84

[[record]]
smiles_input = "COc1ccc(CNc2cccc(C(=O)/C=C/c3ccc(NC(C)=O)cc3)c2)cc1OC"
recorded_result = 166

[[record]]
smiles_input = "O=C(/C=C/c1c[nH]cn1)c1cccc(NCc2ccc3oc(=O)ccc3c2)c1"
recorded_result = 83.2

[[record]]
smiles_input = "O=C(/C=C/c1cccnc1)c1cccc(NCc2ccc(CO)cc2)c1"
recorded_result = 153

[[record]]
smiles_input = "CC(=O)Nc1ccc(/C=C/C(=O)c2cccc(NCc3ccc(CO)cc3)c2)cc1"
recorded_result = 171

[[record]]
smiles_input = "Cc1ccc(CNc2cccc(C(=O)/C=C/c3cccnc3)c2)cc1"
recorded_result = 153

[[record]]
smiles_input = "O=C(/C=C/c1cccnc1)c1cccc(NCc2csc3ccccc23)c1"
recorded_result = 162

[[record]]
smiles_input = "CC(=O)Nc1ccc(CNc2cccc(C(=O)/C=C/c3cccnc3)c2)cc1"
recorded_result = 175

[[record]]
smiles_input = "CC(=O)Nc1ccc(/C=C/C(=O)c2cccc(NCc3ccc(NC(C)=O)cc3)c2)cc1"
recorded_result = 68.2

[[record]]
smiles_input = "O=C(/C=C/c1c[nH]cn1)c1cccc(NCc2ccc(CO)cc2)c1"
recorded_result = 80.5

[[record]]
smiles_input = "CC(=O)Nc1ccc(/C=C/C(=O)c2cccc(NCc3csc4ccccc34)c2)cc1"
recorded_result = 97.9

[[record]]
smiles_input = "CC(=O)Nc1ccc(/C=C/C(=O)c2cccc(NCc3ccc(C)cc3)c2)cc1"
recorded_result = 85.6

